- Tested on: HCT116 cells
- Test Name: Lactate dehydrogenase (LDH) release assay
- Format: cell-based
- Setup Conditions: 0% FBS 4Hr
Observation Type: LDH: Cytotoxicity assay % Effect (%)

1) CC(C)[C@@H](CS(=O)(=O)C(C)C)N1C(=O)[C@@](C)(CC(=O)O)C[C@H](c2cccc(Cl)c2)[C@H]1c1ccc(Cl)cc1	-4.2
2) CC(=O)N[C@@H](CCCCN=[N+]=[N-])C(=O)NCCC(=O)N[C@@H](CC(C)C)C(=O)N[C@@H](Cc1c[nH]cn1)C(=O)N[C@@H](Cc1ccccc1)C(=O)N[C@]1(C)CCCCCCC=CCCC[C@@](C)(C(=O)N[C@@H](CO)C(=O)N[C@@H](C)C(=O)N[C@@H](C)C(N)=O)NC(=O)[C@H](CC2CCC2)NC(=O)[C@H](CCC(N)=O)NC(=O)[C@H](C)NC(=O)[C@H](Cc2c[nH]c3ccccc23)NC(=O)[C@H](Cc2ccc(O)cc2)NC(=O)[C@H](CCC(=O)O)NC1=O [MP-174, AZIDE-ATSP-7041 (T2H)]	2.115
3) CC(=O)N[C@@H](CCCCN=[N+]=[N-])C(=O)NCCC(=O)NC(C)(C)C(=O)N[C@H](C(=O)N[C@@H](Cc1ccccc1)C(=O)N[C@]1(C)CCCCCCC=CCCC[C@@](C)(C(=O)N[C@@H](CO)C(=O)N[C@@H](C)C(=O)N[C@@H](C)C(N)=O)NC(=O)[C@H](CC2CCC2)NC(=O)[C@H](CCC(N)=O)NC(=O)[C@H](C)NC(=O)[C@H](Cc2c[nH]c3ccccc23)NC(=O)[C@H](Cc2ccc(O)cc2)NC(=O)[C@H](CCC(=O)O)NC1=O)[C@@H](C)O	4.017

* * *

- Test Name: Lactate dehydrogenase (LDH) release assay
- Assay type: cell-based
- Setup Conditions: 0% FBS 4Hr; read-out: LDH: Cytotoxicity assay EC50
Observation Type: EC50

1) CC(=O)N[C@@H](CCCCN=[N+]=[N-])C(=O)NCCC(=O)N[C@@H](CC(C)C)C(=O)N[C@@H](Cc1c[nH]cn1)C(=O)N[C@@H](Cc1ccccc1)C(=O)N[C@]1(C)CCCCCCC=CCCC[C@@](C)(C(=O)N[C@@H](CO)C(=O)N[C@@H](C)C(=O)N[C@@H](C)C(N)=O)NC(=O)[C@H](CC2CCC2)NC(=O)[C@H](CCC(N)=O)NC(=O)[C@H](C)NC(=O)[C@H](Cc2c[nH]c3ccccc23)NC(=O)[C@H](Cc2ccc(O)cc2)NC(=O)[C@H](CCC(=O)O)NC1=O [MP-174, AZIDE-ATSP-7041 (T2H)]	> 50 µM

* * *

The entries below are paired with their reported EC50.
- System: p53 responsive β-lactamase reporter in HCT116 cells
- Test Name: cells
- Type: cell-based
- Setup Conditions: 0% FBS 4Hr; read-out: p53 reporter assay: EC50
Observation Type: EC50 (µM)

1) CC(=O)N[C@H](C(=O)N[C@@H](CO)C(=O)N[C@@H](Cc1ccccc1)C(=O)N[C@]1(C)CCCCCCCCCCC[C@@](C)(C(N)=O)NC(=O)[C@H](CC(C)C)NC(=O)[C@H](CC(C)C)NC(=O)[C@H](C)NC(=O)[C@H](Cc2c[nH]c3ccccc23)NC(=O)[C@H](Cc2ccc(O)cc2)NC(=O)[C@H](CCC(=O)O)NC1=O)[C@@H](C)O	1.23
2) CC(=O)N[C@H](C(=O)N[C@@H](CO)C(=O)N[C@@H](Cc1ccccc1)C(=O)N[C@]1(C)CCCCCCC=CCCC[C@@](C)(C(=O)N[C@@H](CCC(=O)O)C(=O)N[C@@H](CC(N)=O)C(N)=O)NC(=O)[C@H](CC(C)C)NC(=O)[C@H](CC(C)C)NC(=O)[C@H](C)NC(=O)[C@H](Cc2c[nH]c3ccccc23)NC(=O)[C@H](Cc2ccc(O)cc2)NC(=O)[C@H](CCC(=O)O)NC1=O)[C@@H](C)O	17.4
3) CC(=O)N[C@@H](CCCCN=[N+]=[N-])C(=O)NCCC(=O)N[C@@H](CC(C)C)C(=O)N[C@H](C(=O)N[C@@H](Cc1ccccc1)C(=O)N[C@]1(C)CCCCCCC=CCCC[C@@](C)(C(=O)N[C@@H](CO)C(=O)N[C@@H](C)C(=O)N[C@@H](C)C(N)=O)NC(=O)[C@H](CC2CCC2)NC(=O)[C@H](CCC(N)=O)NC(=O)[C@H](Cc2c[nH]cn2)NC(=O)[C@H](Cc2c[nH]c3ccccc23)NC(=O)[C@H](Cc2ccc(O)cc2)NC(=O)[C@H](CCC(=O)O)NC1=O)[C@@H](C)O [MP-496, AZIDE-ATSP-7041 (A8H)]	1.61
4) CC(=O)N[C@@H](CCCCN)C(=O)NCCCCCC(=O)N[C@H](C(=O)N[C@@H](CO)C(=O)N[C@@H](Cc1ccccc1)C(=O)N[C@]1(C)CCCCCC/C=C\CCC[C@@](C)(C(=O)N[C@@H](CCC(=O)O)C(=O)N[C@@H](CC(N)=O)C(=O)N[C@@H](Cc2ccccc2)C(N)=O)NC(=O)[C@H](CC(C)C)NC(=O)[C@H](CC(C)C)NC(=O)[C@H](C)NC(=O)[C@H](Cc2c[nH]c3ccccc23)NC(=O)[C@H](Cc2ccc(O)cc2)NC(=O)[C@H](CCC(=O)O)NC1=O)[C@@H](C)O	6.49

Where these numbers come from: paper PMC10786919
